# Test system: 422866-222-R5-J1-PDC complex spheroid viability
# run-description: Anticancer human tumor 422866-222-R5-J1-PDC patient-derived pancreatic adenocarcinoma cell line growth inhibition [POLQ]
# condition-parameters: second compound 0.0316 µM; first compound 3.16 µM; stronger effect = lower value
viability, T/C by entry:

>  <compound>
CCc1cc2c(N3CCc4c(cc(Cn5ccnc5)cc4-c4cn(C)nc4C(F)(F)F)C3=O)ccnc2c(OC)n1 + COC1C(OC(N)=O)C(O)C(Oc2ccc3c(O)c(NC(=O)c4ccc(O)c(CC=C(C)C)c4)c(=O)oc3c2C)OC1(C)C

>  <system-under-test>
422866-222-R5-J1-PDC complex spheroid viability

>  <viability, T/C, %>
113

$$$$
>  <compound>
CC1COCCN1c1cc(-c2ccnn2C)c2ccnc(-c3ccn[nH]3)c2n1 (stereo not given) + Nc1ccc(C#CCN(C(=O)Cc2ncc(C(F)(F)F)cc2C(F)(F)F)c2ccc(F)cc2)nn1

>  <system-under-test>
422866-222-R5-J1-PDC complex spheroid viability

>  <viability, T/C, %>
72.4

$$$$
>  <compound>
CC1COCCN1c1cc(C2(S(C)(=N)=O)CC2)nc(-c2ccnc3[nH]ccc23)n1 (stereo not given) + Cc1cccc(N(C)C(=O)C2C(O)CCN2c2nc(C)cc(C(F)(F)F)c2C#N)c1

>  <system-under-test>
422866-222-R5-J1-PDC complex spheroid viability

>  <viability, T/C, %>
50.9

$$$$
>  <compound>
COc1cccc2c1C(=O)c1c(O)c3c(c(O)c1C2=O)CC(O)(C(=O)CO)CC3OC1CC(N)C(O)C(C)O1 (stereo not given) + COC1C(OC(N)=O)C(O)C(Oc2ccc3c(O)c(NC(=O)c4ccc(O)c(CC=C(C)C)c4)c(=O)oc3c2C)OC1(C)C

>  <system-under-test>
422866-222-R5-J1-PDC complex spheroid viability

>  <viability, T/C, %>
30

$$$$
>  <compound>
CCc1cc2c(N3CCc4c(cc(Cn5ccnc5)cc4-c4cn(C)nc4C(F)(F)F)C3=O)ccnc2c(OC)n1 + Cc1cccc(N(C)C(=O)C2C(O)CCN2c2nc(C)cc(C(F)(F)F)c2C#N)c1

>  <system-under-test>
422866-222-R5-J1-PDC complex spheroid viability

>  <viability, T/C, %>
87.6

$$$$

###

# Test system: 422866-222-R5-J1-PDC complex spheroid viability
# run-description: Anticancer human tumor 422866-222-R5-J1-PDC cell line growth inhibition [POLQ];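 also: spheroids exposed to compounds for one week before readout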
# condition-parameters: curve of first compound; second compound 0.316 µM
pIC50: −log10 of the molar value.
pIC50 by entry:
assay-metric: pIC50

>  <compound>
CCc1cc2c(N3CCc4c(cc(Cn5ccnc5)cc4-c4cn(C)nc4C(F)(F)F)C3=O)ccnc2c(OC)n1 + Cc1cccc(N(C)C(=O)C2C(O)CCN2c2nc(C)cc(C(F)(F)F)c2C#N)c1

>  <assay-metric>
pIC50

>  <reported-result>
< 5.00

$$$$
>  <compound>
COc1cccc(OCCCN)c1-c1cc(Nc2cnc(C#N)cn2)n[nH]1 + Nc1ccc(C#CCN(C(=O)Cc2ncc(C(F)(F)F)cc2C(F)(F)F)c2ccc(F)cc2)nn1

>  <assay-metric>
pIC50

>  <reported-result>
8.24

$$$$
>  <compound>
CCCS(=O)(=O)Nc1ccc(F)c(C(=O)c2c[nH]c3ncc(-c4ccc(Cl)cc4)cc23)c1F + Nc1ccc(C#CCN(C(=O)Cc2ncc(C(F)(F)F)cc2C(F)(F)F)c2ccc(F)cc2)nn1

>  <assay-metric>
pIC50

>  <reported-result>
< 5.00

$$$$
>  <compound>
CCc1c2c(nc3ccc(O)cc13)-c1cc3c(c(=O)n1C2)COC(=O)[C@]3(O)CC + COC1C(OC(N)=O)C(O)C(Oc2ccc3c(O)c(NC(=O)c4ccc(O)c(CC=C(C)C)c4)c(=O)oc3c2C)OC1(C)C

>  <assay-metric>
pIC50

>  <reported-result>
> 8.50

$$$$
>  <compound>
COc1cc2cc(C(=O)CCC(=O)O)sc2cc1OC + Nc1ccc(C#CCN(C(=O)Cc2ncc(C(F)(F)F)cc2C(F)(F)F)c2ccc(F)cc2)nn1

>  <assay-metric>
pIC50

>  <reported-result>
< 5.00

$$$$
